- Test system: UACC-257 melanoma
- ASSAY: NCI tumour cell line growth inhibition, 48 h
*1 amine or outer side, *2 acyl side, *3 side chain or, on linkers, in order; H or OH if unused. Where a SMILES comes first, the peptide text is derived from it. Bridges are numbered along the chain shown (N, C = ends). [ ]: non-standard residue; d: D form. The star is where a group is joined. ξ: configuration not given here. X34 = O=C(C(CCCCNO[*:3])N[*:1])[*:2]; Fmoc = O=C(OCC1c2ccccc2-c2ccccc21)*; ξW = NC(Cc1c[nH]c2ccccc12)C(=O)O; ξP = O=C(O)C1CCCN1
OBSERVABLE: TGI

Known TGI results, listed for orientation:
CN(C(=O)C12C3C4C1C1C2C3C41C(=O)C(C)(C)C)C(C)(C)C (centres undefined); > 100 µM
OCCC1(O)CCC(O)CC1 (centres undefined); > 100 µM
O=C(CC(=O)n1nc(-c2ccccc2)c(N=Nc2ccccc2C(=O)O)c1-c1ccccc1)Nc1ccc(Cl)cc1; > 100 µM
O=C1CNCCCN2CCN(CCCNCC(=O)Nc3ccc(cc3)S(=O)(=O)c3ccc(cc3)NC(=O)CNCCCN3CCN(CCCNCC(=O)Nc4ccc(cc4)S(=O)(=O)c4ccc(cc4)N1)CC3)CC2; 32.7 µM

Hey, can you go through the list below and give me TGI for every item?
1. C=C1CC(COc2cc(=O)oc3ccccc23)(c2ccccc2)OC1=O (centres undefined)
2. CN(CCC#N)c1ccc(/C=C2\SC(=S)NC2=O)cc1
3. NC(=O)CNC(=O)C1CCCN1C(=O)C1CCCCNOC(=O)CC[C@@H](NC(=O)OCC2c3ccccc3-c3ccccc32)C(=O)NC(Cc2c[nH]c3ccccc23)C(=O)N1 (some centres undefined) (Fmoc-[dE][ξW][X34][ξP]G-NH2; ester 1-3)
4. CC1=C(O)C(=O)[C@@H]2O[C@@H]2C1=O
5. Nc1nc2cc3nc(N)c(N)nc3cc2nc1N
6. Nc1ccn(C2O[C@H](CO)[C@@H](O)[C@@H]2O)c(=O)n1 (some centres undefined)

6.65 µM
> 100 µM
> 100 µM
23.9 µM
> 100 µM
> 100 µM
